VALUE_TYPE: melting point

- CS(=O)(=O)Nc1cccc(-c2nnc(-c3ccc(C(=O)O)cc3)o2)c1: > 270 °C
- CN(C)c1ccc(Cc2nnc(-c3ccc(C(=O)O)cc3)o2)cc1: 243 to 245 °C
- COc1ccc(-c2noc(-c3cccc(C(=O)O)c3)n2)cc1: 281.5 to 283 °C
- CCOc1ccc(-c2n[nH]c(-c3cccc(C(=O)O)c3)n2)cc1: 295 to 298 °C
- O=C(O)c1cccc(-c2noc(-c3ccccc3)c2C(=O)O)c1: 255 to 257 °C
- CC(C)c1ccc(-c2cnc(-c3cccc(C(=O)O)c3)[nH]2)cc1: 296 to 298 °C
- COc1cccc(-c2n[nH]c(-c3cccc(C(=O)O)c3)n2)c1: 247 to 250 °C
- O=C(O)c1cccc(-c2cc(-c3cccc(F)c3)no2)c1: 264 to 265 °C

Entry under review: COc1ccc(-c2cc(-c3ccc(C(=O)O)cc3)on2)cc1 . Reported melting point? 297.5 to 299.5 °C
